From: patent US12492187B2

Biological target: Human coagulation factor (F)XI (Homo sapiens, UniProt P03951)
Construct: Enzyme Research Laboratories (FXIIa) HCXI-150 (FXI); HFXIIa (FXIIa)
Sequence (P03951 19-625): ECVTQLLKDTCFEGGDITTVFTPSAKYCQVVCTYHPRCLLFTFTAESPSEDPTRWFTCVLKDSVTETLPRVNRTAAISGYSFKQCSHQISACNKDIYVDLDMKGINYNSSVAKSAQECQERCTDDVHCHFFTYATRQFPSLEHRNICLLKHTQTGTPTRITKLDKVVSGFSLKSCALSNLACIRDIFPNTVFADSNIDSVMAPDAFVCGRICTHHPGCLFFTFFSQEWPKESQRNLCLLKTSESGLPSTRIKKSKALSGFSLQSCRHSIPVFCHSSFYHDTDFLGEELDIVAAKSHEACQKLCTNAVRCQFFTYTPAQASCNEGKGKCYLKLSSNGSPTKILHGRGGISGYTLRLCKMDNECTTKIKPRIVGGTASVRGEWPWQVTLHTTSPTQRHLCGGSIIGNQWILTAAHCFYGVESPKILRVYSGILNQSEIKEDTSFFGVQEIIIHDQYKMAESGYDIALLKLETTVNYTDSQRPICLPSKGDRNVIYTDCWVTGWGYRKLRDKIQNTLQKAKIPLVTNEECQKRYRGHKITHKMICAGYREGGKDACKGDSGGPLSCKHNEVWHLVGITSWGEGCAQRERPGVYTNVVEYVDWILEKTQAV
Test: Inhibition of FXIIa mediated activation of FXI (activation of human Factor XI to XIa by human Factor α-XIIa)
Details: human FXI pre-incubated with compound 30 min at 22° C., activation by human FXIIa 60 min, z-GPR-AFC substrate, fluorescence 405/510 nm, 4 parameter logistic fit; read-out: Inhibition of FXIIa meditated activation of FXI
Structures can show the parent of a compound that is named as a salt.
I'd be grateful if you could share measured pEC50 for these entries.
Quick note: pEC50 values are minus log10 of concentrations in mol/L.

Query string: Data request, read-out pEC50, for Cc1nc(C(=O)N2CCC(C#N)(c3ccccc3)CC2)cc(C(=O)N2CCC(N3CCC(F)(F)C3)CC2)c1C [Example 26, 2,2,2-trifluoroacetate]
Result string: 6.98

Query string: Data request, read-out pEC50, for Cc1cnc(C(=O)N2CCC(C#N)(c3ccccc3)CC2)cc1C(=O)N1CCC2c3c(F)cc(F)cc3OC2C1 (stereo not shown)
Result string: 7.31

Query string: Data request, read-out pEC50, for COc1ccc2c(c1)OC1CN(C(=O)c3cc(C(=O)N4CCC(C#N)(c5ccccc5)CC4)ncc3C)CCC21 (stereo not shown) [Example 21, trifluoroacetate]
Result string: 6.70

Query string: Data request, read-out pEC50, for `Cc1cnc(C(=O)N2CCC(C#N)(c3ccccc3)CC2)cc1C(=O)N1CC(c2ccc(F)cc2)C1`
Result string: 6.97

---

I'd be grateful if you could share measured pEC50 for these entries.
Molecular target: Human coagulation factor (F)XI (Homo sapiens, UniProt P03951)
Construct: Enzyme Research Laboratories (FXIIa) HCXI-150 (FXI); HFXIIa (FXIIa)
Assay: Inhibition of FXIIa mediated activation of FXI (activation of human Factor XI to XIa by human Factor α-XIIa)
Settings: human FXI pre-incubated with compound 30 min at 22° C., activation by human FXIIa 60 min, z-GPR-AFC substrate, fluorescence 405/510 nm, 4 parameter logistic fit; read-out: Inhibition of FXIIa meditated activation of FXI
Counter-ions that a name gives are not always drawn.
Quick note: pEC50 values are minus log10 of concentrations in mol/L.

Query string: Data request, read-out pEC50, for `Cc1nc(C(=O)N2CCC(C#N)(c3ccccc3)CC2)cc(C(=O)N2CCC(C)(c3ccccc3)CC2)c1C`
Result string: 6.91

Query string: Data request, read-out pEC50, for CC(C)(C)C1CCN(C(=O)c2cc(C(=O)N3CCC(C#N)(c4ccccc4)CC3)ncc2C#N)CC1 [Example 25, 2,2,2-trifluoroacetate]
Result string: 7.53

Query string: Data request, read-out pEC50, for `N#CC1(c2ccccc2)CCN(C(=O)c2cc(C(=O)N3CC(c4ccc(F)cc4)C3)c(C(F)(F)F)cn2)CC1`
Result string: 6.39

Query string: Data request, read-out pEC50, for `Cc1cnc(C(=O)N2CCC(C#N)(c3ccccc3)CC2)cc1C(=O)N1CC(c2ccccc2)C1`
Result string: 6.92

Query string: Data request, read-out pEC50, for `Cc1cnc(C(=O)N2CCC(C#N)(c3ccccc3)CC2)cc1C(=O)N1CCN(C2CCCC2)C(=O)C1`
Result string: 6.78

Query string: Data request, read-out pEC50, for Cc1cnc(C(=O)N2CCC(C#N)(c3ccccc3)CC2)cc1C(=O)N1CCC(N2CCC(F)(F)C2)CC1 [Example 1, 2,2,2-trifluoroacetate salt]
Result string: 7.38

Query string: Data request, read-out pEC50, for `Cc1cnc(C(=O)N2CCC(C#N)(c3ccccc3)CC2)cc1C(=O)N(CCC1(O)CCCC1)C1CCC1`
Result string: 7.36
